The reader will find reported pCC50 values listed item by item below.
- Tested on: Vero C1008
- method.description: Cytotoxicity of compound against Vero E6 cells by MTT assay.
- experimental.parameters: chlorocebus sabaeus, vero c1008
I'd appreciate a reply containing only the number, no unit.

{"molecule": "COc1cccc2c(NCc3ccccc3)nc(-n3c(N)nc4ccccc43)nc12", "pCC50": 2.936}
{"molecule": "O=C(O)/C(Cc1ccccc1[N+](=O)[O-])=N\\Nc1nc(-c2ccc(Cl)c(Cl)c2)cs1", "pCC50": 4.32}

Moving on to the next molecule.
Tested on Vero C1008, the item O=C(c1ccc(-n2nnc3cccnc32)cc1)N(c1ncccc1Cl)[C@@H]1CCCNC1 showed pCC50 equal to 5.61

###

- measured.target: Muscarinic acetylcholine receptor M4 (Homo sapiens)
- Sequence (P08173 whole entry): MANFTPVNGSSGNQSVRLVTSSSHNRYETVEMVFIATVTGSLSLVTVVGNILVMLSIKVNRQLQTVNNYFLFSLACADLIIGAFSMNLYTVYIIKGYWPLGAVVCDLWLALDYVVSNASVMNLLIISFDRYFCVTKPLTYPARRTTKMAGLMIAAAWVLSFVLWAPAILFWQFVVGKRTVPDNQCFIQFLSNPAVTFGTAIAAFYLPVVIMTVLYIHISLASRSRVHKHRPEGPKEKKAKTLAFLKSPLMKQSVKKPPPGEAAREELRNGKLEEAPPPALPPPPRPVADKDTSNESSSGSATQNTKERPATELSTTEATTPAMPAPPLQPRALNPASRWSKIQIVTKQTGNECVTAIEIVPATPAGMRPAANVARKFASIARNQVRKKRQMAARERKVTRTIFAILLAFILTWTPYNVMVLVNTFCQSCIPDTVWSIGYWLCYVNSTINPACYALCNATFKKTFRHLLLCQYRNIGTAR
- method.description: Activity of compound against Muscarinic acetylcholine receptor M4 (CHRM4) by displacement of 3H-QNB
The reader will find reported Ki values listed item by item below.
Answers without a unit are incomplete; give the number and then its unit.

Some compounds with recorded Ki:
{"compound": "CCCN1CCC=C(c2cc(-c3ccc(C)cc3)no2)C1", "result": "24.5 µM"}
{"compound": "CCN(CC)CCCC(C)Nc1ccnc2cc(Cl)ccc12 (stereo not drawn) [CHLOROQUINE]", "result": "5.75 µM"}

Reported Ki for CCN(CCO)CCCC(C)Nc1ccnc2cc(Cl)ccc12 (stereo not drawn) [HYDROXYCHLOROQUINE] was 5.5 µM

###

The reader will find reported AUC cytotoxicity values listed item by item below.
- Test system: Vero C1008
- method.description: AUC (cytotoxicity %) of compound against Vero E6 cells by MTT assay.
- Type: toxicity, cell-based
- experimental.parameters: chlorocebus sabaeus
I'd appreciate a reply containing only the number, no unit.

Some compounds with recorded AUC cytotoxicity:
{"compound": "O=C(O)c1ccc2c(c1)nc(Nc1cccc(Cl)c1)c1ccncc12", "measured.endpoint": "AUC cytotoxicity", "result": 225.5}
{"compound": "COc1cccc2c(NCc3ccccc3)nc(-n3c(N)nc4ccccc43)nc12", "measured.endpoint": "AUC cytotoxicity", "result": 175.5}
{"compound": "CC(C)c1cc(C(=O)N2Cc3ccc(CN4CCN(C)CC4)cc3C2)c(O)cc1O", "measured.endpoint": "AUC cytotoxicity", "result": 170.7}
{"compound": "CN(C)C(=N)N=C(N)N", "measured.endpoint": "AUC cytotoxicity", "result": 305.4}
{"compound": "C[C@H](CS)C(=O)N1CCC[C@H]1C(=O)O", "measured.endpoint": "AUC cytotoxicity", "result": 271.9}
{"compound": "Cc1noc2c1-c1ccccc1C(c1ccc(Cl)cc1)=N[C@H]2CC(N)=O", "measured.endpoint": "AUC cytotoxicity", "result": 193.2}
{"compound": "N=C(N)c1ccc2cc(OC(=O)c3ccc(N=C(N)N)cc3)ccc2c1", "measured.endpoint": "AUC cytotoxicity", "result": 279.9}
{"compound": "O=c1[nH]c(=O)n([C@H]2C[C@H](O)[C@@H](CO)O2)cc1/C=C/Br", "measured.endpoint": "AUC cytotoxicity", "result": 244.3}

Moving on to the next compound.
Reported AUC cytotoxicity for CCc1ccc(CCOc2ccc(CC3SC(=O)NC3=O)cc2)nc1 (centres undefined) was 236.6

###

- measured.target: Muscarinic acetylcholine receptor M3 (Homo sapiens)
- Sequence (P20309 whole entry): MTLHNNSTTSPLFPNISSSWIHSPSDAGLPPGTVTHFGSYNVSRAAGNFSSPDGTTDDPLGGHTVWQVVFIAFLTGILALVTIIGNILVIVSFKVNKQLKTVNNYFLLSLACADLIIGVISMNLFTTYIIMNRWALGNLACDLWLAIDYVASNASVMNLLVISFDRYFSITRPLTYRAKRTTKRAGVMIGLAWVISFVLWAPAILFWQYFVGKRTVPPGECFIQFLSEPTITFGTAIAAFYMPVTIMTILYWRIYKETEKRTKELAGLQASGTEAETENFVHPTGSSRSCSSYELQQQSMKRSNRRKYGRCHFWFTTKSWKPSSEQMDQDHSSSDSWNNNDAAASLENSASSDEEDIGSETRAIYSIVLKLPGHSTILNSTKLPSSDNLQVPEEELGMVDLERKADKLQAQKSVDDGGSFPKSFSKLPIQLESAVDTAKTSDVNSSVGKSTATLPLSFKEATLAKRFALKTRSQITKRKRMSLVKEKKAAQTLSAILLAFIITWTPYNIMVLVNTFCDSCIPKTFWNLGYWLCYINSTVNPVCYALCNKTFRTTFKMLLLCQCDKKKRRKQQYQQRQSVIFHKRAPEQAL
measured.endpoint: pKi
Keep it numeric: pKi is minus log10 of the concentration in mol/L.

Reported pKi for CCCN1CCC=C(c2cc(-c3ccc(C)cc3)no2)C1 was 4.62

###

- measured.target: Muscarinic acetylcholine receptor M5 (Homo sapiens)
- Sequence (P08912 whole entry): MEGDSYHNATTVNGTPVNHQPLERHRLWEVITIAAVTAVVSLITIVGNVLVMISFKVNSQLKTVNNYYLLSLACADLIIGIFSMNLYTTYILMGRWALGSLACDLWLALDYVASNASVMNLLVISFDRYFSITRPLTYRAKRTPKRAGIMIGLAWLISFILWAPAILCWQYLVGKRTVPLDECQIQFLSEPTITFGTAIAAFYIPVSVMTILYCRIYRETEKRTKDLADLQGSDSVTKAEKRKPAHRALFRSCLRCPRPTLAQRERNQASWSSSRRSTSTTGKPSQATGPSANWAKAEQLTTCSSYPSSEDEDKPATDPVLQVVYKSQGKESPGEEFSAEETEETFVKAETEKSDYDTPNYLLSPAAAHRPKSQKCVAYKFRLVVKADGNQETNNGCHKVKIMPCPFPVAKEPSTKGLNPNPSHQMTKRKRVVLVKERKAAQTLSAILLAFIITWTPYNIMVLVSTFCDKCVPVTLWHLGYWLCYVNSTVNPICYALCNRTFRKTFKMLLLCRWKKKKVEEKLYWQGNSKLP
measured.endpoint: pKi
Keep it numeric: pKi is minus log10 of the concentration in mol/L.

{"molecule": "CCN(CCO)CCCC(C)Nc1ccnc2cc(Cl)ccc12 (stereo not drawn) [HYDROXYCHLOROQUINE]", "measured.endpoint": "pKi", "result": 4.70}
{"molecule": "CCN(CC)CCCC(C)Nc1ccnc2cc(Cl)ccc12 (stereo not drawn) [CHLOROQUINE]", "measured.endpoint": "pKi", "result": 4.66}

Reported pKi for CCCN1CCC=C(c2cc(-c3ccc(C)cc3)no2)C1 was 4.55

###

- measured.target: Alpha-2C adrenergic receptor (Homo sapiens)
- Sequence (P18825 whole entry): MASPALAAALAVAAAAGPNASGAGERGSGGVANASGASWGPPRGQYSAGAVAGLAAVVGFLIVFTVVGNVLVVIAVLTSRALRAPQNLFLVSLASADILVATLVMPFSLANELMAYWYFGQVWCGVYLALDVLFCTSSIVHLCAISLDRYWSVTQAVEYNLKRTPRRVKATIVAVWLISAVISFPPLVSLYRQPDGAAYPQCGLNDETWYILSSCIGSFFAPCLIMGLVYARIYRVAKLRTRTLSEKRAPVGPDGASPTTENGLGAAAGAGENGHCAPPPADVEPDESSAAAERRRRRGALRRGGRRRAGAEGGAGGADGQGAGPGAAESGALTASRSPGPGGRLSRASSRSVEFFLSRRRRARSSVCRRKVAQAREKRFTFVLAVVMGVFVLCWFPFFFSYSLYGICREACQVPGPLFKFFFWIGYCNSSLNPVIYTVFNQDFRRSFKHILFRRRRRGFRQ
measured.endpoint: pKi
Keep it numeric: pKi is minus log10 of the concentration in mol/L.

Reported pKi for CCCN1CCC=C(c2cc(-c3ccc(C)cc3)no2)C1 was 5.00

###

As an illustration, consider measured Ki for compounds on Voltage-gated inwardly rectifying potassium channel KCNH2 (Homo sapiens, UniProt Q12809).
Sequence (Q12809 whole entry): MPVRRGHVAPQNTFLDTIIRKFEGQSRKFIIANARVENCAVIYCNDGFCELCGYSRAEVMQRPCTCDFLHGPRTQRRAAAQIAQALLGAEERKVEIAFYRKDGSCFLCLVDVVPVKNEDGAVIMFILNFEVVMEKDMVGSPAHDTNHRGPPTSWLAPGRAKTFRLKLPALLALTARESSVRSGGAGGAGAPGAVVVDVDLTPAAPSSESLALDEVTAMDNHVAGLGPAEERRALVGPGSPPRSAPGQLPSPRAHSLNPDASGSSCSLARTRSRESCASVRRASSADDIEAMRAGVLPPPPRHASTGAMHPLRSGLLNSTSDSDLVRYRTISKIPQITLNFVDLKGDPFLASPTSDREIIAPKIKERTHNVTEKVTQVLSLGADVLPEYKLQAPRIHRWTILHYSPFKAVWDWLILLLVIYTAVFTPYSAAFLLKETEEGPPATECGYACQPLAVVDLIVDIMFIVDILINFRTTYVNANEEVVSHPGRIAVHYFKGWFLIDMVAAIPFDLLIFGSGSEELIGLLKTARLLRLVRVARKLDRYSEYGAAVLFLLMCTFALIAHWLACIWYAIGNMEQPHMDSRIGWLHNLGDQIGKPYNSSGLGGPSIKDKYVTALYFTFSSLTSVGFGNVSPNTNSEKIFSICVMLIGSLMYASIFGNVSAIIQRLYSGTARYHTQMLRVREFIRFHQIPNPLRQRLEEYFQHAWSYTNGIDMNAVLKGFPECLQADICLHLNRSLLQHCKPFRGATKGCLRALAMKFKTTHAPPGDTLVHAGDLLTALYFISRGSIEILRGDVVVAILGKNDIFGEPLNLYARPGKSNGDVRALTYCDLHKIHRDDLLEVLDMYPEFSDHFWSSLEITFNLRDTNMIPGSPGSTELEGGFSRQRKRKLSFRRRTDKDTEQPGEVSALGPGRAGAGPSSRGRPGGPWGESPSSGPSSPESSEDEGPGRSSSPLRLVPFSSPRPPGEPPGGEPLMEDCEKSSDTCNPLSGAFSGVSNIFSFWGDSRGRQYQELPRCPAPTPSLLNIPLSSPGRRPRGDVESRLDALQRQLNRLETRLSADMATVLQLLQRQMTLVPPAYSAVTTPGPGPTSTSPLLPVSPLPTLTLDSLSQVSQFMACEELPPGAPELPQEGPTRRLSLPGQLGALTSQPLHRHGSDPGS
Use µM as the unit, but write only the number.

{"compound": "CCCN1CCC=C(c2cc(-c3ccc(C)cc3)no2)C1", "Ki / µM": 10}

Moving on to the next compound.
Tested on Voltage-gated inwardly rectifying potassium channel KCNH2 (Homo sapiens, UniProt Q12809), the item CCN(CCO)CCCC(C)Nc1ccnc2cc(Cl)ccc12 (configuration not stated) [HYDROXYCHLOROQUINE] showed Ki equal to 2.51

###

The reader will find reported CC50 values listed item by item below.
- method.description: Cytotoxicity of compound against Vero E6 cells by MTT assay.
- experimental.parameters: chlorocebus sabaeus, Vero E6 cells
The source made the active and inactive calls. No cut-off for these calls is given here.

{"smiles.str": "NC(=O)c1ncn([C@@H]2O[C@H](CO)[C@@H](O)[C@H]2O)n1", "CC50": "~21700 nM (inactive)"}
{"smiles.str": "CC(C)c1cc(C(=O)N2Cc3ccc(CN4CCN(C)CC4)cc3C2)c(O)cc1O", "CC50": "~1.66 nM"}

Moving on to the next molecule.
Reported CC50 for CC(C)CC(=O)N[C@H](C(=O)N[C@H](C(=O)N[C@@H](CC(C)C)[C@@H](O)CC(=O)N[C@@H](C)C(=O)N[C@@H](CC(C)C)[C@@H](O)CC(=O)O)C(C)C)C(C)C was ~19.5 nM (inactive)

###

- Tested on: SARS-CoV-2
- method.description: microbe, parasite or virus in culture
- Assay type: functional, organism-based, Chlorocebus sabaeus
- experimental.parameters: Severe acute respiratory syndrome coronavirus 2, Vero C1008, 48 h
Activity calls are given as the source filed them. No cut-off for these calls is given here.
measured.endpoint: IC50

Some compounds with recorded IC50:
{"compound": "N=C(N)Nc1ccc(C(=O)Oc2ccc3cc(C(=N)N)ccc3c2)cc1", "measured.target": "SARS-CoV-2", "measured.endpoint": "IC50", "result": "~39800 nM (inactive)"}
{"compound": "O=C(c1ccc(-n2nnc3cccnc32)cc1)N(c1ncccc1Cl)[C@@H]1CCCNC1", "measured.target": "SARS-CoV-2", "measured.endpoint": "IC50", "result": "7590 nM"}
{"compound": "CC(=O)Oc1ccccc1C(=O)Nc1ncc([N+](=O)[O-])s1 [NITAZOXANIDE]", "measured.target": "SARS-CoV-2", "measured.endpoint": "IC50", "result": "2820 nM"}
{"compound": "COc1cccc2c1C(=O)c1c(O)c3c(c(O)c1C2=O)C[C@@](O)(C(C)=O)C[C@@H]3O[C@H]1C[C@H](N)[C@H](O)[C@H](C)O1", "measured.target": "SARS-CoV-2", "measured.endpoint": "IC50", "result": "~214 nM"}

Moving on to the next compound.
Reported IC50 for CN(C)C(=N)NC(=N)N was ~2860 nM
